Test system: Candida albicans
method-description: Minimum inhibitory concentration against Candida albicans FP633 strain
Assay type: functional
quantity-measured: MIC (µg/mL)
Response body: numeric value in µg/mL, unit text excluded.

IN: Form: Entry = CCCCCCCCCCCCC[C@@H]1CC(=O)N[C@H]([C@@H](C)O)C(=O)N[C@H](C)C(=O)N[C@@H](Cc2ccc(O)cc2)C(=O)N[C@@H](C(C)C)C(=O)N2C[C@H](O)C[C@H]2C(=O)N[C@H]([C@@H](C)O)C(=O)N[C@@H]([C@@H](C)O)C(=O)N2CC[C@H](O)[C@H]2C(=O)N[C@@H]([C@H](O)CC(N)=O)C(=O)NCC(=O)N[C@H]([C@@H](C)O)C(=O)N[C@@H](CCCNC(=O)CCCN)C(=O)O1.Cl | System = Candida albicans | MIC = ____
OUT: 0.78

IN: Form: Entry = CCCCCCCCCCCCC[C@@H]1CC(=O)N[C@H]([C@@H](C)O)C(=O)N[C@H](C)C(=O)N[C@@H](Cc2ccc(O)cc2)C(=O)N[C@@H](C(C)C)C(=O)N2C[C@H](O)C[C@H]2C(=O)N[C@H]([C@@H](C)O)C(=O)N[C@@H]([C@@H](C)O)C(=O)N2CC[C@H](O)[C@H]2C(=O)N[C@@H]([C@H](O)CC(N)=O)C(=O)NCC(=O)N[C@H]([C@@H](C)O)C(=O)N[C@@H](CCCN)C(=O)O1.Cl | System = Candida albicans | MIC = ____
OUT: 0.39

----------
Exercise: for every item that follows, state its recorded MIC.
System: Candida albicans
method-description: Minimum inhibitory concentration against Candida albicans FP579 strain
Type: functional

IN: Would you mind telling me what MIC value was observed for CCCCCCCCCCCCC[C@@H]1CC(=O)N[C@H]([C@@H](C)O)C(=O)N[C@H](C)C(=O)N[C@@H](Cc2ccc(O)cc2)C(=O)N[C@@H](C(C)C)C(=O)N2C[C@H](O)C[C@H]2C(=O)N[C@H]([C@@H](C)O)C(=O)N[C@@H]([C@@H](C)O)C(=O)N2CC[C@H](O)[C@H]2C(=O)N[C@@H]([C@H](O)CC(N)=O)C(=O)NCC(=O)N[C@H]([C@@H](C)O)C(=O)N[C@@H](CCCN)C(=O)O1.Cl ?
OUT: 0.39 µg/mL

IN: Would you mind telling me what MIC value was observed for CCCCCCCCCCCCC[C@@H]1CC(=O)N[C@H]([C@@H](C)O)C(=O)N[C@H](C)C(=O)N[C@@H](Cc2ccc(O)cc2)C(=O)N[C@@H](C(C)C)C(=O)N2C[C@H](O)C[C@H]2C(=O)N[C@H]([C@@H](C)O)C(=O)N[C@@H]([C@@H](C)O)C(=O)N2CC[C@H](O)[C@H]2C(=O)N[C@@H]([C@H](O)CC(N)=O)C(=O)NCC(=O)N[C@H]([C@@H](C)O)C(=O)N[C@@H](CCCNC(=O)[C@@H]2CCN2)C(=O)O1.Cl ?
OUT: 0.78 µg/mL
